# experiment notes: Clearance in BALB/C mouse at 5 mg/kg, po or 1 mg/kg, iv by LC-MS/MS method
# Assay type: ADME, organism-based
# assay setup: in vivo
measurement kind: clearance (mL/min/kg)

(a) CN1C[C@H](C(=O)Nc2ccc(Cl)cc2)[C@@H](c2ccc(/C=C/C(=O)Nc3ccccc3N)cn2)C1 (racemic)
(b) CN1C[C@H](C(=O)Nc2ccc(F)cc2)[C@@H](c2ccc(/C=C/C(=O)Nc3ccccc3N)cc2)C1 (racemic)
INPUT: Could you please tell me which of these two has the higher clearance: a or b ? Answer format: the label of the selected item.
OUTPUT: b
(b: 127 mL/min/kg, a: 79 mL/min/kg)

---

# assayed system: Protein deacetylase HDAC6 (Homo sapiens, UniProt Q9UBN7)
# Sequence (Q9UBN7 whole entry): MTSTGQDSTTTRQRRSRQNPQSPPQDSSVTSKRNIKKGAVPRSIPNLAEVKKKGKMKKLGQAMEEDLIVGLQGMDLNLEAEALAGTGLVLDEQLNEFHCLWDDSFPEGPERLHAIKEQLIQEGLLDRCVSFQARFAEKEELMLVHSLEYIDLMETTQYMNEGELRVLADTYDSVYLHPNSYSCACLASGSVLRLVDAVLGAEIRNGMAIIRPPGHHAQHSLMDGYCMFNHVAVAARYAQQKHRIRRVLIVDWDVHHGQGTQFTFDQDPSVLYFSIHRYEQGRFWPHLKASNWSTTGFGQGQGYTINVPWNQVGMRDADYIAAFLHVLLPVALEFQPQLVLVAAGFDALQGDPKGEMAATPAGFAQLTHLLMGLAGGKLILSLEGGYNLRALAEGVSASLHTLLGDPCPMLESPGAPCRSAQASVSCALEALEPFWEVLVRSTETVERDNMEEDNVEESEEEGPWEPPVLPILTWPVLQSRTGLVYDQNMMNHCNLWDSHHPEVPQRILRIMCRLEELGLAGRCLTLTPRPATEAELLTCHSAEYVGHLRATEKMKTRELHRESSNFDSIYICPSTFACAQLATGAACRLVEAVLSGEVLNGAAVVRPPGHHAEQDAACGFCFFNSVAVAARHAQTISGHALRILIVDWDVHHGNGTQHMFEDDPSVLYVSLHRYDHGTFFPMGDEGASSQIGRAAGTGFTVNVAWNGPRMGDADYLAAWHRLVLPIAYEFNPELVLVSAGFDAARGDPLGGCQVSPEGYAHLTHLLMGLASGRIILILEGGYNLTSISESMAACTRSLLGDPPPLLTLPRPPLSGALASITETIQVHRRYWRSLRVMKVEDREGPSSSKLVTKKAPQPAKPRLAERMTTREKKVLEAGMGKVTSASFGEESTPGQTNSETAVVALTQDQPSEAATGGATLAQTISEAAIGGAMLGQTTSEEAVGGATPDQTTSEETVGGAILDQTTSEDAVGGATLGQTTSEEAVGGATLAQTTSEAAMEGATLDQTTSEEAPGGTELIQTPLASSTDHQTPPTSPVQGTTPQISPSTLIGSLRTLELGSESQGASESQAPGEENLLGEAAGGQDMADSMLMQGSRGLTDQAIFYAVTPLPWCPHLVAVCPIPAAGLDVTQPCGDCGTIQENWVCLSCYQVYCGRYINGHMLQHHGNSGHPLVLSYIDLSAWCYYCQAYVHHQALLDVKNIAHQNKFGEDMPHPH
pIC50: −log10 of the molar value.
measurement kind: pIC50

Noted for CN1C[C@H](C(=O)Nc2ccc(Cl)cc2)[C@@H](c2ccc(/C=C/C(=O)Nc3ccccc3N)cc2)C1 : its pIC50 reads < 4.52
